- tested target: MmCLK1 (Mus musculus)
- Construct: host or cells: bacteria
- procedure text: ADP-Glo kinase inhibition assay, CLK1
- Format: biochemical
- conditions: 10 μM ATP, duplicate; read-out: CLK1 IC50
measured attribute: IC50 (µM)
Quick note: give the figure in µM, leave out the unit.

Can you share its IC50? I mean this molecule: `CCn1ncc2c(C3CC3)c3cnccc3c([N+](=O)[O-])c21`
0.229

Now consider `CCn1ncc2cc3cnccc3c([N+](=O)[O-])c21` .
0.166

Could you now consider this next molecule?
# lookup: IC50 of `Cn1ncc2cc3cnccc3c(N)c21`
0.548

----------
Item-by-item account of remaining activity at 10 µM
- tested target: Pim-1 (Homo sapiens, UniProt P11309)
- Construct: host or cells: bacteria
- Sequence (P11309 whole entry): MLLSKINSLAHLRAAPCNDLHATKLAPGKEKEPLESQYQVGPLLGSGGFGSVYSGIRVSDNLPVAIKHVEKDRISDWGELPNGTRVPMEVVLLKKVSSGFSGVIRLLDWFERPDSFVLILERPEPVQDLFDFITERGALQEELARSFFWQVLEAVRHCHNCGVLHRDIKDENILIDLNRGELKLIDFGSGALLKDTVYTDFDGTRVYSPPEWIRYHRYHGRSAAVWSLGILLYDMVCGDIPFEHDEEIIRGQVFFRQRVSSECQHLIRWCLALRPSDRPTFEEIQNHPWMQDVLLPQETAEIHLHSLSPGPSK
- procedure text: ADP-Glo kinase inhibition assay, Pim-1
- Type: biochemical
- conditions: 10 μM compound, 10 μM ATP, duplicate; read-out: PIM1 % residual activity at 10 μM
// units = %; emit number, no label

Which remaining activity at 10 µM is listed for `Cn1ncc2cc3cnccc3c([N+](=O)[O-])c21` ?
54

Similarly, `Cn1ncc2cc3cnccc3c(N)c21` ?
71

Field entry: `O=[N+]([O-])c1c2ccncc2cc2cn[nH]c12`
85

Let us now turn to `CCn1ncc2cc3cnccc3c(N)c21`
60

`CCn1ncc2cc3cncc(Br)c3c([N+](=O)[O-])c21` ?
54

New cases:
What value of remaining activity at 10 µM has been recorded for this entry: `CCc1c2cnccc2c([N+](=O)[O-])c2c1cnn2CC`
89

----------
# remaining activity at 1 µM per entry
- tested target: MmCLK1 (Mus musculus, UniProt P22518)
- Construct: host or cells: bacteria
- Sequence (P22518 whole entry): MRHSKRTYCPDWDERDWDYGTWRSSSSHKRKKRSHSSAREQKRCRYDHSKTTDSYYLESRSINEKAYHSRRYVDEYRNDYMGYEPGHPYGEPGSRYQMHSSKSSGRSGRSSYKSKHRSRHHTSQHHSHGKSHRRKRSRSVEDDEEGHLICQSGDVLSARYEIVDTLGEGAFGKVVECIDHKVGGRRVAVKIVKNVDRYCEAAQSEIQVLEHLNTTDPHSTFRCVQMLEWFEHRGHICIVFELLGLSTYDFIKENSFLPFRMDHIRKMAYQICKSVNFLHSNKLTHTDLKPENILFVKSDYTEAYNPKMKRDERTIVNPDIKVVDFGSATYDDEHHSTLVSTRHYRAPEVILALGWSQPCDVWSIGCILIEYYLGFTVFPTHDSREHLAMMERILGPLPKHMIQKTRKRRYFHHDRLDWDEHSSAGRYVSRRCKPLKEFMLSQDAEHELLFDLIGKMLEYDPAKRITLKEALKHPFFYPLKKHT
- procedure text: ADP-Glo kinase inhibition assay, CLK1
- Format: biochemical
- conditions: read-out: CLK1 % residual activity at 1 μM

Answered examples (5):
Entry `O=[N+]([O-])c1c2ccncc2cc2cn[nH]c12` has what remaining activity at 1 µM?
90%

Same question, `CCCc1c2cnccc2c([N+](=O)[O-])c2c1cnn2CC` this time
23%

Please answer likewise for `CCCCc1c2cnccc2c([N+](=O)[O-])c2c1cnn2CC`
58%

Also check `Cn1ncc2cc3cnccc3c([N+](=O)[O-])c21`
42%

Subsequent entry: Nc1c2ccncc2cc2cn[nH]c12 [Compound 2a, 1-H-pyrazolo[3,4-g]isoquinolin-9-amine]
20%

New cases:
What value of remaining activity at 1 µM has been recorded for this entry: `Cn1ncc2cc3cnccc3c(N)c21`
36%

Queued: `CCn1ncc2cc3cnccc3c(N)c21`
34%

Next compound: `CCn1ncc2c(C3CC3)c3cnccc3c([N+](=O)[O-])c21`
24%

Next entry: `CCn1ncc2cc3cnccc3c([N+](=O)[O-])c21`
25%

Follow-up entry: `CCn1ncc2cc3cncc(Br)c3c([N+](=O)[O-])c21`
42%

Would you kindly repeat that for `CCc1c2cnccc2c([N+](=O)[O-])c2c1cnn2CC` ?
19%

Try this compound next: `CCn1ncc2c(C)c3cnccc3c([N+](=O)[O-])c21`
13%

----------
- tested target: CDK9/CyclinT (Homo sapiens, UniProt P50750)
- Construct: host or cells: Sf9 insect cells (baculovirus)
- Sequence (O60563 whole entry): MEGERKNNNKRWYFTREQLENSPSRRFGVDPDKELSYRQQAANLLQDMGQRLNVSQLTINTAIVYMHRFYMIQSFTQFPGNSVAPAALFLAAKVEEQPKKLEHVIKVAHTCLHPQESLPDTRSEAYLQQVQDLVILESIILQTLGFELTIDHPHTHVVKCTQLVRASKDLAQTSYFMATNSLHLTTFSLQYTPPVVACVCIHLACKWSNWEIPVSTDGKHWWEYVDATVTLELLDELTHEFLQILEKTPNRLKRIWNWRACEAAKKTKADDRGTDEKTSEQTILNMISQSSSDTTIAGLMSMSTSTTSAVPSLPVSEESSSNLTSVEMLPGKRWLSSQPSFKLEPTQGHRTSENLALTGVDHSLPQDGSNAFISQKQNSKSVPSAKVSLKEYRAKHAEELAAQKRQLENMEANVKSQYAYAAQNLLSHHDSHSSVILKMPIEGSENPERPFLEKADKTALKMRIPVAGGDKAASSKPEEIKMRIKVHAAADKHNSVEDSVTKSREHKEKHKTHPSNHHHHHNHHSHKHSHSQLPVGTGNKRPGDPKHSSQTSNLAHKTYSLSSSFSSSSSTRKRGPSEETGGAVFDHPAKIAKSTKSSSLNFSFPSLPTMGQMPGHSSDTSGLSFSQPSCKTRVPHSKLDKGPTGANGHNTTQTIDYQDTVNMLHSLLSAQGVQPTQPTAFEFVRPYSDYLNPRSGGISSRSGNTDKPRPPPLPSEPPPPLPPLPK
- Sequence (P50750 whole entry): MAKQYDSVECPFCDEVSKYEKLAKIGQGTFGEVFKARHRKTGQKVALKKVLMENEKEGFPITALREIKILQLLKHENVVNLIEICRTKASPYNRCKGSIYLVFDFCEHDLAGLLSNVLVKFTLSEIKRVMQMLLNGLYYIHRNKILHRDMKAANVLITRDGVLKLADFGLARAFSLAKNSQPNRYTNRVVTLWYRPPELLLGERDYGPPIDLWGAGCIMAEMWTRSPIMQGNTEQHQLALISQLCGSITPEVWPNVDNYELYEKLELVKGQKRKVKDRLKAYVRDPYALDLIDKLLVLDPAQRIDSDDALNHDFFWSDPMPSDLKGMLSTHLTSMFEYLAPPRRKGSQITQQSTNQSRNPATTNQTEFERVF
- procedure text: ADP-Glo kinase inhibition assay, CDK9/CyclinT
- Format: biochemical
- conditions: read-out: CDK9 % residual activity at 10 μM
measured attribute: remaining activity at 10 µM

Look up remaining activity at 10 µM for this compound: `CCn1ncc2c(C)c3cnccc3c([N+](=O)[O-])c21`
14%

Next:
Fill in the blank: the reported remaining activity at 10 µM of `CCn1ncc2cc3cnccc3c(N)c21` is ____.
50%

Param item: `CCn1ncc2cc3cncc(Br)c3c([N+](=O)[O-])c21`
18%

Can you handle `Cn1ncc2cc3cnccc3c(N)c21` next?
15%

----------
measured attribute: melting point

Value lookup for melting point; key = `CS(=O)(=O)O.O=[N+]([O-])c1c2ccncc2cc2cn[nH]c12`
> 250 °C

Switching to the query record.
Which melting point value is on record for Nc1c2ccncc2cc2cn[nH]c12 [Compound 2a, 1-H-pyrazolo[3,4-g]isoquinolin-9-amine] ?
> 250 °C

----------
- tested target: CK1ε (Homo sapiens)
- Construct: host or cells: Sf9 insect cells (baculovirus)
- Sequence (P49674 whole entry): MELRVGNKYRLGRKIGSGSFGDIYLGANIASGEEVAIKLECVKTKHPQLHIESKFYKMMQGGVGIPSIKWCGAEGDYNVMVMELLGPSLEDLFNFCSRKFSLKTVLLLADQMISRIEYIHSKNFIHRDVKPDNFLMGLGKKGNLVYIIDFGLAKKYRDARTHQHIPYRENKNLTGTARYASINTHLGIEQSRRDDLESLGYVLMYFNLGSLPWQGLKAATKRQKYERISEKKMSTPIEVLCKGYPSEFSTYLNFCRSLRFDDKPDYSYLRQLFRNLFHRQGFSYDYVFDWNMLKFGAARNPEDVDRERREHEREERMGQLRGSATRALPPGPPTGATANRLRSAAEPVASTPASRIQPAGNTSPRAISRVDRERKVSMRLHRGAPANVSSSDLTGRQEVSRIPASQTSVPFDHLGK
- procedure text: ADP-Glo kinase inhibition assay, CK1ε
- Format: biochemical
- conditions: 1 μM compound, 10 μM ATP, duplicate; read-out: CK1 % residual activity at 1 μM
// reported remaining activity at 1 µM for each item listed
Expressed in %, but write only the number.

Here are 5 compounds together with their reported answers.
Record request: remaining activity at 1 µM value, item CCCc1c2cnccc2c([N+](=O)[O-])c2c1cnn2CC [Compound 3c]
81

Same read-out for CCCCc1c2cnccc2c([N+](=O)[O-])c2c1cnn2CC [Compound 3e] ?
100

Moving on to the next compound: O=[N+]([O-])c1c2ccncc2cc2cn[nH]c12 [1a’]
100

// repeat for CCn1ncc2c(C3CC3)c3cnccc3c([N+](=O)[O-])c21 [Compound 3d] and report
61

Likewise for Cn1ncc2cc3cnccc3c(N)c21 [Compound 2b] ?
77

***
Given the compound CCc1c2cnccc2c([N+](=O)[O-])c2c1cnn2CC [Compound 3b] , what is its reported remaining activity at 1 µM?
82

Same question for CCn1ncc2cc3cncc(Br)c3c([N+](=O)[O-])c21 [Compound 4] please.
100

----------
- tested target: RnDYRK1A-kd (Rattus norvegicus)
- Construct: RnDYRK1A-kd (Rattus norvegicus, amino acids 1–499 including the kinase domain, recombinant, expressed in bacteria); made in house; host or cells: bacteria
- procedure text: ADP-Glo kinase inhibition assay, DYRK1A
- Type: biochemical
- conditions: read-out: DYRK1A % residual activity at 10 μM
measured attribute: remaining activity at 10 µM (%)
Give just the numeric value; % need not be written.

# get_value(readout='remaining activity at 10 µM', item= Cn1ncc2cc3cnccc3c(N)c21 [Compound 2b] )
5

New cases:
What measured remaining activity at 10 µM goes with CCn1ncc2cc3cnccc3c([N+](=O)[O-])c21 [Compound 1c] ?
18

And CCCc1c2cnccc2c([N+](=O)[O-])c2c1cnn2CC [Compound 3c] ?
41

Repeat with CCn1ncc2c(C3CC3)c3cnccc3c([N+](=O)[O-])c21 [Compound 3d]
29

What about this molecule? CCn1ncc2cc3cncc(Br)c3c([N+](=O)[O-])c21 [Compound 4]
25

Could you do the same for Nc1c2ccncc2cc2cn[nH]c12 [Compound 2a, 1-H-pyrazolo[3,4-g]isoquinolin-9-amine] , please?
12

Now this one: CCc1c2cnccc2c([N+](=O)[O-])c2c1cnn2CC [Compound 3b]
9

----------
- tested target: Haspin-kd (human, kinase domain, amino acids 470–798) (Homo sapiens)
- Construct: Haspin-kd (human, kinase domain, amino acids 470–798, recombinant, expressed in bacteria); host or cells: bacteria
- Sequence (Q8TF76 470-798): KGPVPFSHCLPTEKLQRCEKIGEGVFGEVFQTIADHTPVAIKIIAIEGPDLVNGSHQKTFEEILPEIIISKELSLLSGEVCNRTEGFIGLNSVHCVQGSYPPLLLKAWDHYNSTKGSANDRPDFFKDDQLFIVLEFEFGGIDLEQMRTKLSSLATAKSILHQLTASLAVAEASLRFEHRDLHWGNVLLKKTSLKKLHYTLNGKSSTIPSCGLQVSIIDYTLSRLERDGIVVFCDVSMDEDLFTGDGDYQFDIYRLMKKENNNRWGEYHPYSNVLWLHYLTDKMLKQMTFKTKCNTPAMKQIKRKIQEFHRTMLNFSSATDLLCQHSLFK
- procedure text: ADP-Glo kinase inhibition assay, Haspin
- Assay type: biochemical
- conditions: 10 μM ATP, duplicate
Flag rule - IC50 less than 0.2 µM flags yes; the remaining entries get no.

Threshold test, IC50 < 0.2 µM: `Cn1ncc2cc3cnccc3c(N)c21`
yes

What do we get for `CCn1ncc2cc3cnccc3c(N)c21` ?
yes

Input `CCn1ncc2cc3cnccc3c([N+](=O)[O-])c21`
yes

What do you get for `CCn1ncc2c(C)c3cnccc3c([N+](=O)[O-])c21` ?
yes

Also `O=[N+]([O-])c1c2ccncc2cc2cn[nH]c12` , if possible.
yes

More entries:
Record `CCCc1c2cnccc2c([N+](=O)[O-])c2c1cnn2CC` : is its IC50 strictly below 0.2 µM?
no

Query Nc1c2ccncc2cc2cn[nH]c12 [Compound 2a, 1-H-pyrazolo[3,4-g]isoquinolin-9-amine] next
yes

Likewise for `CCn1ncc2c(C3CC3)c3cnccc3c([N+](=O)[O-])c21` ?
no

How about this molecule: `Cn1ncc2cc3cnccc3c([N+](=O)[O-])c21`
yes

----------
Each record here notes measured remaining activity at 1 µM.
- tested target: Haspin-kd (human, kinase domain, amino acids 470–798) (Homo sapiens)
- Construct: Haspin-kd (human, kinase domain, amino acids 470–798, recombinant, expressed in bacteria); host or cells: bacteria
- procedure text: ADP-Glo kinase inhibition assay, Haspin
- Type: biochemical
- conditions: read-out: Haspin % residual activity at 1 μM
Please respond with the number in % and leave the unit unwritten.

Dear colleague, I am looking for the recorded remaining activity at 1 µM of the following molecule: `CCn1ncc2c(C3CC3)c3cnccc3c([N+](=O)[O-])c21`
21

// next record Nc1c2ccncc2cc2cn[nH]c12 [Compound 2a, 1-H-pyrazolo[3,4-g]isoquinolin-9-amine]
13

Similarly, `CCn1ncc2cc3cncc(Br)c3c([N+](=O)[O-])c21` ?
77

Try this molecule too: `O=[N+]([O-])c1c2ccncc2cc2cn[nH]c12`
32

What do we get for `CCCc1c2cnccc2c([N+](=O)[O-])c2c1cnn2CC` ?
25

What about this molecule? `CCn1ncc2c(C)c3cnccc3c([N+](=O)[O-])c21`
20

Further cases:
I'd like to know its remaining activity at 1 µM. The molecule in question is `CCn1ncc2cc3cnccc3c([N+](=O)[O-])c21`
38
